All figures here come from the supplement of paper PMC8617591.

- System: Mycobacterium tuberculosis Erdman (autoluminescent)
- PROTOCOL DESCRIPTION: AUC25, normalised area under dose response up to IC25 (fraction (0-1)); higher = more potent at low dose
- MEASUREMENT SETUP: in vitro model: valerate; time point: constant (~7 days, model-specific)
RESULT TYPE: AUC25

[
  {
    "COMPOUND": "CC(=O)NC[C@H]1CN(c2ccc(N3CCOCC3)c(F)c2)C(=O)O1 [linezolid] + CO[C@H]1/C=C/O[C@@]2(C)Oc3c(C)c(O)c4c(O)c(c(/C=N/N5CCN(C)CC5)c(O)c4c3C2=O)NC(=O)/C(C)=C\\C=C\\[C@H](C)[C@H](O)[C@@H](C)[C@@H](O)[C@@H](C)[C@H](OC(C)=O)[C@@H]1C [rifampicin]",
    "EXPERIMENTAL VALUE": 0.0582
  },
  {
    "COMPOUND": "CC[C@@H](CO)NCCN[C@@H](CC)CO [ethambutol] + O=[N+]([O-])c1cn2c(n1)OC[C@@H](OCc1ccc(OC(F)(F)F)cc1)C2 [pretomanid]",
    "EXPERIMENTAL VALUE": 0.111
  },
  {
    "COMPOUND": "COc1nc2ccc(Br)cc2cc1[C@@H](c1ccccc1)[C@@](O)(CCN(C)C)c1cccc2ccccc12 [bedaquiline] + CO[C@H]1/C=C/O[C@@]2(C)Oc3c(C)c(O)c4c(O)c(c(/C=N/N5CCN(C6CCCC6)CC5)c(O)c4c3C2=O)NC(=O)/C(C)=C\\C=C\\[C@H](C)[C@H](O)[C@@H](C)[C@@H](O)[C@@H](C)[C@H](OC(C)=O)[C@@H]1C [rifapentine]",
    "EXPERIMENTAL VALUE": 0.0652
  },
  {
    "COMPOUND": "CC(C)/N=c1\\cc2n(-c3ccc(Cl)cc3)c3ccccc3nc-2cc1Nc1ccc(Cl)cc1 [clofazimine] + CC(=O)NC[C@H]1CN(c2ccc(N3CCOCC3)c(F)c2)C(=O)O1 [linezolid]",
    "EXPERIMENTAL VALUE": 0.148
  }
]

----------
- Tested on: Mycobacterium tuberculosis Erdman (autoluminescent)
- PROTOCOL DESCRIPTION: total FIC50 (Loewe) at 50% inhibition, three-drug combination (log2); higher = more antagonistic
- MEASUREMENT SETUP: in vitro model: dormancy (butyrate + nitrate, low O2); time point: constant (~7 days, model-specific)

[
  {
    "COMPOUND": "NNC(=O)c1ccncc1 [isoniazid] + CC(=O)NC[C@H]1CN(c2ccc(N3CCOCC3)c(F)c2)C(=O)O1 [linezolid] + CO[C@H]1/C=C/O[C@@]2(C)Oc3c(C)c(O)c4c(O)c(c(/C=N/N5CCN(C6CCCC6)CC5)c(O)c4c3C2=O)NC(=O)/C(C)=C\\C=C\\[C@H](C)[C@H](O)[C@@H](C)[C@@H](O)[C@@H](C)[C@H](OC(C)=O)[C@@H]1C [rifapentine]",
    "total FIC50": 1.15
  },
  {
    "COMPOUND": "COc1c(N2C[C@@H]3CCCN[C@@H]3C2)c(F)cc2c(=O)c(C(=O)O)cn(C3CC3)c12 [moxifloxacin] + O=[N+]([O-])c1cn2c(n1)OC[C@@H](OCc1ccc(OC(F)(F)F)cc1)C2 [pretomanid] + CO[C@H]1/C=C/O[C@@]2(C)Oc3c(C)c(O)c4c(O)c(c(/C=N/N5CCN(C)CC5)c(O)c4c3C2=O)NC(=O)/C(C)=C\\C=C\\[C@H](C)[C@H](O)[C@@H](C)[C@@H](O)[C@@H](C)[C@H](OC(C)=O)[C@@H]1C [rifampicin]",
    "total FIC50": 0.689
  },
  {
    "COMPOUND": "CC(C)/N=c1\\cc2n(-c3ccc(Cl)cc3)c3ccccc3nc-2cc1Nc1ccc(Cl)cc1 [clofazimine] + CC[C@@H](CO)NCCN[C@@H](CC)CO [ethambutol] + CO[C@H]1/C=C/O[C@@]2(C)Oc3c(C)c(O)c4c(O)c(c(/C=N/N5CCN(C6CCCC6)CC5)c(O)c4c3C2=O)NC(=O)/C(C)=C\\C=C\\[C@H](C)[C@H](O)[C@@H](C)[C@@H](O)[C@@H](C)[C@H](OC(C)=O)[C@@H]1C [rifapentine]",
    "total FIC50": -0.127
  }
]

----------
- Test system: Mycobacterium tuberculosis Erdman (autoluminescent)
- PROTOCOL DESCRIPTION: total FIC50 (Loewe) at 50% inhibition, three-drug combination (log2); higher = more antagonistic
- MEASUREMENT SETUP: in vitro model: valerate; time point: constant (~7 days, model-specific)
RESULT TYPE: total FIC50

[
  {
    "COMPOUND": "CC(C)/N=c1\\cc2n(-c3ccc(Cl)cc3)c3ccccc3nc-2cc1Nc1ccc(Cl)cc1 [clofazimine] + CC(=O)NC[C@H]1CN(c2ccc(N3CCOCC3)c(F)c2)C(=O)O1 [linezolid] + CO[C@H]1/C=C/O[C@@]2(C)Oc3c(C)c(O)c4c(O)c(c(/C=N/N5CCN(C6CCCC6)CC5)c(O)c4c3C2=O)NC(=O)/C(C)=C\\C=C\\[C@H](C)[C@H](O)[C@@H](C)[C@@H](O)[C@@H](C)[C@H](OC(C)=O)[C@@H]1C [rifapentine]",
    "EXPERIMENTAL VALUE": 0.974
  },
  {
    "COMPOUND": "O=[N+]([O-])c1cn2c(n1)OC[C@@H](OCc1ccc(OC(F)(F)F)cc1)C2 [pretomanid] + NC(=O)c1cnccn1 [pyrazinamide] + CO[C@H]1/C=C/O[C@@]2(C)Oc3c(C)c(O)c4c(O)c(c(/C=N/N5CCN(C6CCCC6)CC5)c(O)c4c3C2=O)NC(=O)/C(C)=C\\C=C\\[C@H](C)[C@H](O)[C@@H](C)[C@@H](O)[C@@H](C)[C@H](OC(C)=O)[C@@H]1C [rifapentine]",
    "EXPERIMENTAL VALUE": 0.0684
  },
  {
    "COMPOUND": "COc1nc2ccc(Br)cc2cc1[C@@H](c1ccccc1)[C@@](O)(CCN(C)C)c1cccc2ccccc12 [bedaquiline] + CC(=O)NC[C@H]1CN(c2ccc(N3CCOCC3)c(F)c2)C(=O)O1 [linezolid] + NC(=O)c1cnccn1 [pyrazinamide]",
    "EXPERIMENTAL VALUE": 0.362
  }
]

----------
- Tested on: Mycobacterium tuberculosis Erdman (autoluminescent)
- PROTOCOL DESCRIPTION: total FIC50 (Loewe) at 50% inhibition, three-drug combination (log2); higher = more antagonistic
- MEASUREMENT SETUP: in vitro model: butyrate; time point: constant (~7 days, model-specific)
RESULT TYPE: total FIC50

[
  {
    "MOLECULE": "COc1nc2ccc(Br)cc2cc1[C@@H](c1ccccc1)[C@@](O)(CCN(C)C)c1cccc2ccccc12 [bedaquiline] + NNC(=O)c1ccncc1 [isoniazid] + CC(=O)NC[C@H]1CN(c2ccc(N3CCOCC3)c(F)c2)C(=O)O1 [linezolid]",
    "RESULT TYPE": "total FIC50",
    "EXPERIMENTAL VALUE": 0.739
  },
  {
    "MOLECULE": "COc1nc2ccc(Br)cc2cc1[C@@H](c1ccccc1)[C@@](O)(CCN(C)C)c1cccc2ccccc12 [bedaquiline] + CC(=O)NC[C@H]1CN(c2ccc(N3CCOCC3)c(F)c2)C(=O)O1 [linezolid] + CO[C@H]1/C=C/O[C@@]2(C)Oc3c(C)c(O)c4c(O)c(c(/C=N/N5CCN(C6CCCC6)CC5)c(O)c4c3C2=O)NC(=O)/C(C)=C\\C=C\\[C@H](C)[C@H](O)[C@@H](C)[C@@H](O)[C@@H](C)[C@H](OC(C)=O)[C@@H]1C [rifapentine]",
    "RESULT TYPE": "total FIC50",
    "EXPERIMENTAL VALUE": 0.437
  },
  {
    "MOLECULE": "COc1nc2ccc(Br)cc2cc1[C@@H](c1ccccc1)[C@@](O)(CCN(C)C)c1cccc2ccccc12 [bedaquiline] + CC[C@@H](CO)NCCN[C@@H](CC)CO [ethambutol] + NC(=O)c1cnccn1 [pyrazinamide]",
    "RESULT TYPE": "total FIC50",
    "EXPERIMENTAL VALUE": 0.369
  }
]

----------
- System: Mycobacterium tuberculosis Erdman (autoluminescent)
- PROTOCOL DESCRIPTION: GRinf, maximum normalised growth rate inhibition (three-drug combination) (unitless (-1 to 1)); higher = less effect (negative = killing)
- MEASUREMENT SETUP: in vitro model: dormancy (butyrate + nitrate, low O2); time point: terminal (~4-5 doublings, model-specific)
RESULT TYPE: GRinf

[
  {
    "COMPOUND": "COc1nc2ccc(Br)cc2cc1[C@@H](c1ccccc1)[C@@](O)(CCN(C)C)c1cccc2ccccc12 [bedaquiline] + CC(C)/N=c1\\cc2n(-c3ccc(Cl)cc3)c3ccccc3nc-2cc1Nc1ccc(Cl)cc1 [clofazimine] + CO[C@H]1/C=C/O[C@@]2(C)Oc3c(C)c(O)c4c(O)c(c(/C=N/N5CCN(C)CC5)c(O)c4c3C2=O)NC(=O)/C(C)=C\\C=C\\[C@H](C)[C@H](O)[C@@H](C)[C@@H](O)[C@@H](C)[C@H](OC(C)=O)[C@@H]1C [rifampicin]",
    "EXPERIMENTAL VALUE": -0.191
  },
  {
    "COMPOUND": "CC[C@@H](CO)NCCN[C@@H](CC)CO [ethambutol] + COc1c(N2C[C@@H]3CCCN[C@@H]3C2)c(F)cc2c(=O)c(C(=O)O)cn(C3CC3)c12 [moxifloxacin] + NC(=O)c1cnccn1 [pyrazinamide]",
    "EXPERIMENTAL VALUE": -0.107
  },
  {
    "COMPOUND": "CC(C)/N=c1\\cc2n(-c3ccc(Cl)cc3)c3ccccc3nc-2cc1Nc1ccc(Cl)cc1 [clofazimine] + COc1c(N2C[C@@H]3CCCN[C@@H]3C2)c(F)cc2c(=O)c(C(=O)O)cn(C3CC3)c12 [moxifloxacin] + O=[N+]([O-])c1cn2c(n1)OC[C@@H](OCc1ccc(OC(F)(F)F)cc1)C2 [pretomanid]",
    "EXPERIMENTAL VALUE": -0.138
  }
]
